target: T1, CTNI quality control recombinant protein (PK2-CTNI-1, 170120, produced by the applicant) (human, UniProt P19429 2-210, limits assumed); assay: AMC sensor kinetics, antibody captured, cTnI analyte
T1 construct: also called cardiac troponin I
T1 sequence (P19429 2-210 limits assumed): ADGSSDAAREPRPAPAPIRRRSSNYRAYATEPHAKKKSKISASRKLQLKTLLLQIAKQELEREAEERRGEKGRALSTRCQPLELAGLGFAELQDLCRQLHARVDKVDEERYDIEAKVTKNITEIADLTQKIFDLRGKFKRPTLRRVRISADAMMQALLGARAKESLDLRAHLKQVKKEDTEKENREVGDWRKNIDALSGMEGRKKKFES
PROPERTY: kon (M⁻¹ s⁻¹)
Give the number; M⁻¹ s⁻¹ is assumed, so skip it.

Recorded results for 2 binders are shown here.
Mutation 1-1 (antibody, V domains shown, built as for Mutation 1) VH: EVQLQQSGAELVKPGASVKLSCTASGFNLKDYYMHWMKQRTEQGLDWIGRIDPEDAETKYAPEFQGKATITADTSSNTAYLQLSTLTSEDTAVYYCARYYSSYLPFVYWGQGTLVTASA VL: DVVMTQTPLSLSVSLGDQASISCRSSQSILYSNRHTYLHWYLQKPGQSPKLLIFQLSNRFSGVPDRFSGSGSGTDFTLKINRVEAEDLGVYFCSQSTHLPYTFGSGTKLEIKR: 359000
Mutation 1-3 (antibody, V domains shown, built as for Mutation 1) VH: EVQLQQSGAELVKPGASVKLSCTASGFNIKDYYMHWMKQRTEQGLDWIGRIDPEDGETKYAPEFQGKATITADTSSNTAYLQLSTLTSEDTAVYYCARYYSSYLPFVYWGQGTLVTASA VL: DVVMTQTPLSLSVSLGDQASISCRSSQSLLYSNRHTYLHWYLQKPGQSPKLLIFQLSNRFSGVPDRFSGSGSGTDFTLKINRVEAEDLGVYFCSQSTHIPYTFGSGTKLEIKR: 181000

Field: next binder
(Q) I have this binder here, Mutation 1-11 (antibody, V domains shown, built as for Mutation 1) VH: EVQLQQSGAELVKPGASVKLSCTASGFNIKDYYMHWMKQRTEQGLDWIGRIDPEDAETKYAPEFQGKATITADTSSNTAYLQLSTLTSEDTAVYYCARYYSSYVPFVYWGQGTLVTASA VL: DVVMTQTPLSLSVSLGDQASISCRSSQSILYSNRHTYLHWYLQKPGQSPKLLIFQVSNRFSGVPDRFSGSGSGTDFTLKINRVEAEDLGVYFCSQSTHIPFTFGSGTKLEIKR , and I need its recorded kon.
(A) 731000
